- assay-target: recombinant human glucagon receptor (Homo sapiens, UniProt P47871)
- Sequence (P47871 26-477): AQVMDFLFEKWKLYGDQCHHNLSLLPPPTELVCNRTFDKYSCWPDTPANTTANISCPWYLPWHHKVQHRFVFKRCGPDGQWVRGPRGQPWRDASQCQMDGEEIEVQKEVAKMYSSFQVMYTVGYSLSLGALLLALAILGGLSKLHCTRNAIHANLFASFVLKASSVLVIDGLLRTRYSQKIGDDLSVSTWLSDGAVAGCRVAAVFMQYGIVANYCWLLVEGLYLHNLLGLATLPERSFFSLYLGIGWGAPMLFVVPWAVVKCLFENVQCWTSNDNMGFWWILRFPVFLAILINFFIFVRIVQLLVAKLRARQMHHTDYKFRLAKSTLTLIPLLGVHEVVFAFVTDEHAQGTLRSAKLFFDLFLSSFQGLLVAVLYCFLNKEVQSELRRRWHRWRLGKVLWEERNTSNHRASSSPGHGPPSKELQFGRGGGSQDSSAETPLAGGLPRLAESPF
- procedure-details: Inhibition of glucagon-stimulated intracellular cAMP assay
- condition-label: CHO cells expressing recombinant human glucagon receptor, stimulated with 300 pM glucagon, LANCE cAMP
Consider the following compounds and their measured IC50 readings.
A number alone suffices; assume nM.

CCC[C@H](c1ccc(C(=O)NCc2nn[nH]n2)cc1)N1C(=O)C(c2cccc(Cl)c2)=NC12CCC(C(C)(C)C)CC2 (some centres unmarked) [Example 1.156]: 452

Let us examine a further case.
-- ask Fill in: IC50 of CC(C)(C)C1CCC2(CC1)N=C(c1ccc(F)cc1)C(=O)N2[C@@H](c1ccc(C(=O)NCCC(=O)O)cc1)C1CC1 (some centres unmarked) [Example 1.212] is ___
-- reply 57
